Test: in vitro
Details: human, HepG2 cells and A549 cells
Description: Selectivity index, ratio of IC50 for human HepG2 cells to IC50 for human A549 cells
selectivity ratio less than 2 is 1; selectivity ratio greater than or equal to 2 is 0.

Worked set:
[[record]]
smiles_structure = "Cn1cc(Nc2ncc(Cl)c(Nc3cccc(NC(=O)/C=C/c4ccccc4)c3)n2)cn1"
group_label = 0

[[record]]
smiles_structure = "C=CC(=O)Nc1cccc(Nc2nc(Nc3cnn(C)c3)ncc2Cl)c1"
group_label = 0

[[record]]
smiles_structure = "O=C(CCl)Nc1cccc(Nc2nc(Nc3ccc4[nH]c(=O)oc4c3)ncc2Cl)c1"
group_label = 1

[[record]]
smiles_structure = "CCC(=O)Nc1cccc(Nc2nc(Nc3cnn(C)c3)ncc2Cl)c1"
group_label = 0

[[record]]
smiles_structure = "COc1cc(N2CCN(C(C)=O)CC2)ccc1Nc1ncc(Cl)c(Nc2cccc(NC(=O)CCl)c2)n1"
group_label = 0


Consider the molecule "Cn1cc(Nc2ncc(Cl)c(Nc3cccc(NC(=O)CCl)c3)n2)cn1" . Is its selectivity ratio strictly less than 2?
1

Hello, is selectivity ratio of the following molecule strictly smaller than 2? "C=CC(=O)Nc1cccc(Nc2nc(Nc3ccc(N4CCN(C(C)=O)CC4)cc3)ncc2Cl)c1"
0

----------
Below are compounds with their pIC50 as measured on Epidermal growth factor receptor (Homo sapiens, UniProt P00533, L858R/T790M).
Sequence (P00533 25-1210 T790M/L858R limits assumed): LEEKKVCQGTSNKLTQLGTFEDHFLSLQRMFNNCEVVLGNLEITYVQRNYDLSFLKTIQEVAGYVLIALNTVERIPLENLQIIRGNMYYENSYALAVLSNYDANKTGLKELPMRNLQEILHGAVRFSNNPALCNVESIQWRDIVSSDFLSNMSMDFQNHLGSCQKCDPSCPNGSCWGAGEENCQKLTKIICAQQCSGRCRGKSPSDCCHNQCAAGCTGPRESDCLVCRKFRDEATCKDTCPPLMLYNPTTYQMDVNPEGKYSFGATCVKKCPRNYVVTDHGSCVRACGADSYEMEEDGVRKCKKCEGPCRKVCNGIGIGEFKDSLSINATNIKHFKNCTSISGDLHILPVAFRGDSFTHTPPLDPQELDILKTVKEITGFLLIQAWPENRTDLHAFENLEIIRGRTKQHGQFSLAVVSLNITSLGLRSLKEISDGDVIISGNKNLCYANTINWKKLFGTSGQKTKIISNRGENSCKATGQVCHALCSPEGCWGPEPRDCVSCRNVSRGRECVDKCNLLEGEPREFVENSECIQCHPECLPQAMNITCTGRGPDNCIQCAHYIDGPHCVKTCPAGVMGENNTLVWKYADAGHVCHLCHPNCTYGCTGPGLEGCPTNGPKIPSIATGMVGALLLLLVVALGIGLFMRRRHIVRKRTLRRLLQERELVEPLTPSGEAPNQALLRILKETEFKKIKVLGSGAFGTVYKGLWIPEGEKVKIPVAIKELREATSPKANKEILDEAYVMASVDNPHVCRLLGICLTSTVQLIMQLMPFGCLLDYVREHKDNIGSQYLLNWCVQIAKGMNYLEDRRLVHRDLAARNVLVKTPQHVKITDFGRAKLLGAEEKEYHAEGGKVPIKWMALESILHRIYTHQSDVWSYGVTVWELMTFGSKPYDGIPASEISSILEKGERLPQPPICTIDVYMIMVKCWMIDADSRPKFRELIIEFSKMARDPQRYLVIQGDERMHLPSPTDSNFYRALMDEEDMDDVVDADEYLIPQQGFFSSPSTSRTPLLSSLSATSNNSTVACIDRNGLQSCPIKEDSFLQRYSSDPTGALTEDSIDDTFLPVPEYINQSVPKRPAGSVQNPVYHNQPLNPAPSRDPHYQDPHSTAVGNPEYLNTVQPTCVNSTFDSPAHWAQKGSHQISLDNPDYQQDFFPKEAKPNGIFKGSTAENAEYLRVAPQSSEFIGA
Note: pIC50 values are expressed as the negative base-10 logarithm of concentration in M.

Worked set:
[[record]]
smiles_structure = "Cn1cc(Nc2ncc(Cl)c(Nc3cccc(NC(=O)CCl)c3)n2)cn1"
quantity_measured = "pIC50"
quantitative_result = 7.32

[[record]]
smiles_structure = "COc1cc(N2CCN(C(C)=O)CC2)ccc1Nc1ncc(Cl)c(Nc2cccc(NC(=O)CCl)c2)n1"
quantity_measured = "pIC50"
quantitative_result = 7.25

[[record]]
smiles_structure = "CCC(=O)Nc1cccc(Nc2nc(Nc3cnn(C)c3)ncc2Cl)c1"
quantity_measured = "pIC50"
quantitative_result = 7.72

[[record]]
smiles_structure = "C=CC(=O)Nc1cccc(Nc2nc(Nc3cnn(C)c3)ncc2Cl)c1"
quantity_measured = "pIC50"
quantitative_result = 7.68

[[record]]
smiles_structure = "C=CC(=O)Nc1cccc(Nc2nc(Nc3ccc(N4CCN(C(C)=O)CC4)cc3)ncc2Cl)c1"
quantity_measured = "pIC50"
quantitative_result = 7.16

[[record]]
smiles_structure = "Cn1cc(Nc2ncc(Cl)c(Nc3cccc(NC(=O)/C=C/c4ccccc4)c3)n2)cn1"
quantity_measured = "pIC50"
quantitative_result = 7.64


Tested on Epidermal growth factor receptor (Homo sapiens, UniProt P00533, L858R/T790M), the item "O=C(CCl)Nc1cccc(Nc2nc(Nc3ccc4[nH]c(=O)oc4c3)ncc2Cl)c1" showed pIC50 equal to 7.20

----------
Test: Aqueous solubility of the compound in PBS buffer at PH 7.4 measured after 6 hrs by HPLC-UV analysis
Type: physicochemical
Settings: pH 7.4, 6 h
The entries below come with measured solubility values attached.
Please don't drop the unit; write it after the number.

[[record]]
smiles_structure = "COc1cc(N2CCN(C(C)=O)CC2)ccc1Nc1ncc(Cl)c(Nc2cccc(NC(=O)CCl)c2)n1"
quantity_measured = "solubility"
result = "8.65 µg"


Lab book: solubility of "CCC(=O)Nc1cccc(Nc2nc(Nc3cnn(C)c3)ncc2Cl)c1" noted as 80.1 µg

The compound "C=CC(=O)Nc1cccc(Nc2nc(Nc3cnn(C)c3)ncc2Cl)c1" showed solubility equal to 109 µg

From: ChEMBL document CHEMBL6092148
